system: ryegrass, Italian (italian ryegrass, Lolium multiflorum); assay: Test A preemergence soil spray, visual injury rating 0-100; format: in vivo; settings: 16 g ai/ha, 0 to 100 scale, 10 days
Recorded measurements of Ryegrass, Italian plant response rating, one per entry
RESULT_TYPE: Ryegrass, Italian plant response rating

1) COC(=O)C1C=CC(NC(=O)C2(C)CN(c3cc(F)cc(F)c3)C(=O)O2)C1 (stereo not shown) [Compound 89]: 80
2) CC1(C(=O)NC2CC=C(C(=O)NS(=O)(=O)C3CC3)C2)CN(c2cc(F)cc(F)c2)C(=O)O1 (racemic) [Compound 90]: 0
3) CC1(C(=O)NC2CC=C(C(=O)OCC(F)(F)F)C2)CN(c2cc(F)cc(Cl)c2)C(=O)O1 (stereo not shown) [Compound 142]: 0
4) CCOC(=O)C1C=CC(NC(=O)C2(C)CN(c3cccc(OC(F)(F)F)c3)C(=O)O2)C1 (stereo not shown) [Compound 102]: 0
5) CC1(C(=O)NC2CC=C(C(=O)OCC3CC3)C2)CN(c2cc(F)cc(Cl)c2)C(=O)O1 (stereo not shown) [Compound 144]: 10
6) CCOC(=O)C1CC(NC(=O)C2(C)CN(c3cc(F)cc(F)c3)C(=O)O2)C1 (stereo not shown) [Compound 125]: 0
7) COC(=O)C1C=CC(NC(=O)C2(C)CN(c3cc(F)cc(F)c3)C(=O)O2)C1 (mixture of isomers) [Compound 161]: 90
8) CC1(C(=O)NC2CC(C(=O)OCC(F)(F)F)C2)CN(c2cc(F)cc(F)c2)C(=O)O1 (stereo not shown) [Compound 121]: 50
9) CC1(C(=O)NC2CC=C(C(=O)O)C2)CN(c2cc(F)cc(Cl)c2)C(=O)O1 (stereo not shown) [Compound 160]: 0
10) CCOC(=O)C1=CCC(NC(=O)C2(C)CN(c3cc(F)cc(F)c3)C(=O)O2)C1 (stereo not shown) [Compound 112]: 60
11) COC(=O)C1=CCC(NC(=O)C2(C)CN(c3cc(Cl)cc(Cl)c3)C(=O)O2)C1 (stereo not shown) [Compound 148]: 0
12) CC(C)COC(=O)C1=CCC(NC(=O)C2(C)CN(c3cc(Cl)cc(Cl)c3)C(=O)O2)C1 (stereo not shown) [Compound 155]: 0
13) CSCCOC(=O)C1CC(NC(=O)C2(C)CN(c3cc(F)cc(F)c3)C(=O)O2)C1 (racemic) [Compound 120]: 10
14) CC1(C(=O)NC2CC=C(C(=O)O)C2)CN(c2cc(Cl)cc(Cl)c2)C(=O)O1 (stereo not shown) [Compound 157]: 0
15) CCOC(=O)C1=CCC(NC(=O)C2(C)CN(c3cc(Cl)cc(Cl)c3)C(=O)O2)C1 (stereo not shown) [Compound 114]: 0
16) COC(=O)COC(=O)C1=CCC(NC(=O)C2(C)CN(c3cc(F)cc(F)c3)C(=O)O2)C1 (stereo not shown) [Compound 108]: 70

* * *

tested on: ryegrass, Italian (italian ryegrass, Lolium multiflorum); experiment: Test A preemergence soil spray, visual injury rating 0-100; type: in vivo; details: 62 g ai/ha, 10 days, 0 = no effect, 100 = complete control
RESULT_TYPE: Ryegrass, Italian plant response rating (0-100)

1. CC1(C(=O)NC2CC=C(C(=O)OCC(F)(F)F)C2)CN(c2cc(F)cc(Cl)c2)C(=O)O1 (stereo not shown) [Compound 141]: 90
2. CC1(C(=O)NC2C=CC(C(=O)O)C2)CN(c2cc(F)cc(F)c2)C(=O)O1 (stereo not shown): 90
3. CC1(C(=O)NC2CC(C(=O)OCC(F)(F)F)C2)CN(c2cc(F)cc(F)c2)C(=O)O1 (stereo not shown): 90
4. COC(=O)COC(=O)C1=CCC(NC(=O)C2(C)CN(c3cc(Cl)cc(Cl)c3)C(=O)O2)C1 (stereo not shown) [Compound 110]: 60
5. CC1(C(=O)NC2CC=C(C(=O)OCC(F)(F)F)C2)CN(c2cc(F)cc(Cl)c2)C(=O)O1 (stereo not shown) [Compound 142]: 0
6. CC1(C(=O)NC2CC=C(C(=O)NS(C)(=O)=O)C2)CN(c2cc(F)cc(F)c2)C(=O)O1 (racemic): 40
7. CSCCOC(=O)C1=CCC(NC(=O)C2(C)CN(c3cc(Cl)cc(Cl)c3)C(=O)O2)C1 (stereo not shown): 20

* * *

Recorded measurements of Foxtail, Green plant response rating (0-100), one per entry
test system: green foxtail (Setaria viridis); test: Test A postemergence application, visual injury rating 0-100; format: in vivo; conditions: 62 g ai/ha, postemergence, 10 days, 0 = no effect, 100 = complete control
RESULT_TYPE: Foxtail, Green plant response rating (0-100)

1) CC1(C(=O)NC2CC=C(C(=O)NS(C)(=O)=O)C2)CN(c2cc(F)cc(F)c2)C(=O)O1 (racemic): 90
2) CCOC(=O)C1=CCC(NC(=O)C2(C)CN(c3cc(Cl)cc(Cl)c3)C(=O)O2)C1 (centres unmarked): 90
3) COC(=O)C1CC(NC(=O)C2(C)CN(c3cc(F)cc(F)c3)C(=O)O2)C1 (centres unmarked) [Compound 118]: 90
4) CC1(C(=O)NC2CC=C(C(=O)OCC(F)F)C2)CN(c2cc(F)cc(F)c2)C(=O)O1 (centres unmarked): 0
5) Cc1cc(C)cc(N2CC(C)(C(=O)NC3C=CC(C(=O)O)C3)OC2=O)c1 (centres unmarked): 30

* * *

Recorded measurements of Ragweed plant response rating (0-100), one per entry
tested on: ragweed (common ragweed, Ambrosia artemisiifolia); test: Test A postemergence application, visual injury rating 0-100; format: in vivo; conditions: 62 g ai/ha, postemergence, 10 days, 0 = no effect, 100 = complete control
RESULT_TYPE: Ragweed plant response rating (0-100)

1. CCOC(=O)C1=CCC(NC(=O)C2(C)CN(c3cc(F)cc(Cl)c3)C(=O)O2)C1 (centres unmarked) [Compound 133]: 70
2. COC(=O)C1CC(NC(=O)C2(C)CN(c3cc(F)cc(Cl)c3)C(=O)O2)C1 (centres unmarked) [Compound 145]: 20
3. COC(=O)C1C=CC(NC(=O)C2(C)CN(c3cc(F)cc(F)c3)C(=O)O2)C1 (mixture of isomers) [Compound 161]: 70
4. COC(=O)C1CC(NC(=O)C2(C)CN(c3cc(F)cc(F)c3)C(=O)O2)C1 (centres unmarked) [Compound 130]: 30
5. COC(=O)COC(=O)C1=CCC(NC(=O)C2(C)CN(c3cc(Cl)cc(Cl)c3)C(=O)O2)C1 (centres unmarked) [Compound 110]: 80
6. CC(C)OC(=O)C1=CCC(NC(=O)C2(C)CN(c3cc(F)cc(F)c3)C(=O)O2)C1 (centres unmarked) [Compound 100]: 40
7. CCOC(=O)C1=CCC(NC(=O)C2(C)CN(c3cc(F)cc(F)c3)C(=O)O2)C1 (centres unmarked) [Compound 112]: 50
8. CC1(C(=O)NC2CC(C(=O)O)C2)CN(c2cc(F)cc(F)c2)C(=O)O1 (centres unmarked) [Compound 119]: 20

* * *

tested on: blackgrass (Alopecurus myosuroides); assay: Test A preemergence soil spray, visual injury rating 0-100; type: in vivo; conditions: 31 g ai/ha, 10 days, 0 = no effect, 100 = complete control
Recorded measurements of Blackgrass plant response rating (0-100), one per entry
RESULT_TYPE: Blackgrass plant response rating (0-100)

1) COC(=O)C1CCC(NC(=O)C2(C)CN(c3cc(F)cc(F)c3)C(=O)O2)C1 (stereo not shown): 30
2) COC(=O)C1=CCC(NC(=O)C2(C)CN(c3cc(F)cc(F)c3)C(=O)O2)C1 (single isomer, unassigned): 0
3) CC1(C(=O)NC2C=CC(C(=O)NS(=O)(=O)C(C)(C)C)C2)CN(c2cc(F)cc(F)c2)C(=O)O1 (stereo not shown): 0
4) CC(C)OC(=O)C1CC(NC(=O)C2(C)CN(c3cc(F)cc(F)c3)C(=O)O2)CO1 (stereo not shown): 0

* * *

Recorded measurements of Wheat plant response rating (0 to 100 scale), one per entry
system: wheat (Triticum aestivum); experiment: Test A postemergence application, visual injury rating 0-100; assay type: in vivo; conditions: Postemergence, 125 g ai/ha, 10 days; 0 is no effect, 100 is complete control
Excerpt: […]
RESULT_TYPE: Wheat plant response rating (0 to 100 scale)

1) COC(=O)C1=CC[C@H](NC(=O)C2(C)CN(c3cc(F)cc(F)c3)C(=O)O2)C1 (mixture of isomers): 90
2) CCOC(=O)C1CCC(NC(=O)C2(C)CN(c3cc(F)cc(F)c3)C(=O)O2)C1 (stereo not shown): 90
3) CC1(C(=O)NC2C=CC(C(=O)NS(C)(=O)=O)C2)CN(c2cc(F)cc(F)c2)C(=O)O1 (stereo not shown): 80
4) COC(=O)C1C=CC(NC(=O)C2(C)CN(c3cc(F)cc(Cl)c3)C(=O)O2)C1 (stereo not shown): 90
5) CC1(C(=O)NC2C=CC(C(=O)OCCS(C)(=O)=O)C2)CN(c2cc(Cl)cc(Cl)c2)C(=O)O1 (stereo not shown): 90
6) CC(C)OC(=O)C1CCC(NC(=O)C2(C)CN(c3cc(F)cc(F)c3)C(=O)O2)C1 (stereo not shown): 60
7) CC1(C(=O)NC2C=CC(C(=O)OCCS(C)(=O)=O)C2)CN(c2cc(F)cc(F)c2)C(=O)O1 (stereo not shown): 90
8) CC1(C(=O)NC2C=CC(C(=O)OCC#N)C2)CN(c2cc(F)cc(F)c2)C(=O)O1 (stereo not shown): 70
9) CC1(C(=O)NC2CCC(C(=O)O)C2)CN(c2cc(F)cc(Cl)c2)C(=O)O1 (stereo not shown): 90
10) CC1(C(=O)NC2CCC(C(=O)O)C2)CN(c2cc(F)cc(F)c2)C(=O)O1 (stereo not shown): 90
11) COC(=O)[C@H]1C[C@@H](NC(=O)C2(C)CN(c3cc(F)cc(F)c3)C(=O)O2)[C@H]2C[C@H]21 (stereo partly shown): 90
12) CCOC(=O)C1C=CC(NC(=O)C2(C)CN(c3cc(Cl)cc(Cl)c3)C(=O)O2)C1 (stereo not shown): 90
13) CC1(C(=O)NC2C=CC(C(=O)OCC(F)(F)F)C2)CN(c2cc(Cl)cc(Cl)c2)C(=O)O1 (stereo not shown): 90
14) CC(C)OC(=O)C1C=CC(NC(=O)C2(C)CN(c3cc(F)cc(Cl)c3)C(=O)O2)C1 (stereo not shown): 90
15) CCS(=O)(=O)NC(=O)C1C=CC(NC(=O)C2(C)CN(c3cc(F)cc(F)c3)C(=O)O2)C1 (stereo not shown): 90
16) CC1(C(=O)NC2C=CC(C(=O)OC3CCCC3)C2)CN(c2cc(F)cc(F)c2)C(=O)O1 (stereo not shown): 90
17) CC1(C(=O)NC2C=CC(C(=O)OCC(F)(F)F)C2)CN(c2cc(F)cc(F)c2)C(=O)O1 (stereo not shown): 90
18) CC1(C(=O)NC2C=CC(C(=O)O)C2)CN(c2cc(F)cc(Cl)c2)C(=O)O1 (stereo not shown): 90
19) CC1(C(=O)NC2CC=C(C(=O)NS(=O)(=O)C3CC3)C2)CN(c2cc(Cl)cc(Cl)c2)C(=O)O1 (stereo not shown): 80
